Provenance of the data: paper PMC6271425

test system: NO production in IFN-γ/LPS-stimulated RAW 264.7 macrophages; assay: NO suppression (Griess nitrite determination) in IFN-γ/LPS-stimulated RAW 264.7 macrophages; format: cell-based, murine; conditions: 50 µM test concentration; IFN-γ/LPS-stimulated RAW 264.7 cells; 50 µM
// NB: equality with 90% counts as no (0); only NO Inhibition at 50 µM (%) ± S.E.M strictly below is yes (1)

Worked examples follow.
| SMILES TEXT | LABEL VALUE |
| --- | --- |
| O=C(/C=C(O)/C=C/c1ccccc1)c1ccccc1O | no (0) |
| COc1ccc(O)c(C(=O)/C=C(O)/C=C/c2ccccc2)c1 | no (0) |
| O=C(/C=C(O)/C=C/c1ccco1)c1cc(O)ccc1O | yes (1) |
| O=C(/C=C(O)/C=C/c1ccccc1Cl)c1cc(Cl)ccc1O | yes (1) |
| O=C(/C=C(O)/C=C/c1cc(O)ccc1O)c1cc(Cl)ccc1O | no (0) |

I'd appreciate it if you could check whether O=C(/C=C(O)/C=C/c1cccs1)c1ccc(O)cc1O has NO Inhibition at 50 µM (%) ± S.E.M smaller than 90%. yes (1)

I'd appreciate it if you could check whether COc1cccc(/C=C/C(O)=C/C(=O)c2cc(Cl)ccc2O)c1 has NO Inhibition at 50 µM (%) ± S.E.M smaller than 90%. yes (1)

====

system: NO production in IFN-γ/LPS-stimulated RAW 264.7 macrophages; assay: NO suppression (Griess nitrite determination) in IFN-γ/LPS-stimulated RAW 264.7 macrophages; type: cell-based, murine; conditions: 50 µM test concentration; IFN-γ/LPS-stimulated RAW 264.7 cells; 50 µM
MEASURED QUANTITY: NO Inhibition at 50 µM (%) ± S.E.M
Please give a number only; it is taken to be in %.

| SMILES TEXT | NO Inhibition at 50 µM (%) ± S.E.M |
| --- | --- |
| COc1ccc(O)c(C(=O)/C=C(O)/C=C/c2cccs2)c1 | 85.0 |
| O=C(/C=C(O)/C=C/c1cccc(Br)c1)c1ccccc1O | 88.4 |
| O=C(/C=C(O)/C=C/c1ccc(Cl)s1)c1cc(Cl)ccc1O | 71.6 |
| O=C(/C=C(O)/C=C/c1cccc(O)c1)c1ccccc1O | 97.2 |
| O=C(/C=C(O)/C=C/c1ccccc1O)c1cc(O)ccc1O | 83.6 |
| O=C(/C=C(O)/C=C/c1cccs1)c1cc(Cl)ccc1O | 68.8 |
| COc1ccc(O)c(C(=O)/C=C(O)/C=C/c2cc(OC)c(OC)c(OC)c2)c1 | 95.2 |
| O=C(/C=C(O)/C=C/c1ccc(O)c(O)c1)c1ccccc1O | 98.9 |

Memo: COc1ccc(C(=O)/C=C(O)/C=C/c2ccc(OC)c(OC)c2)c(O)c1 , reported NO Inhibition at 50 µM (%) ± S.E.M: 58.9

====

IC50 by entry:
system: NO production in IFN-γ/LPS-stimulated RAW 264.7 macrophages; assay: NO suppression (Griess nitrite determination) in IFN-γ/LPS-stimulated RAW 264.7 macrophages; assay type: cell-based, murine; details: IFN-γ/LPS-stimulated RAW 264.7 cells; read-out: NO Inhibition IC50 (µM) ± S.E.M

Below: 4 molecules and their reported IC50.
| MOLECULE | IC50 |
| --- | --- |
| COc1cc(/C=C/C(=O)CC(=O)/C=C/c2ccc(O)c(OC)c2)ccc1O [Curcumin, curcumin, reference compound] | 14.7 µM |
| O=C(/C=C(O)/C=C/c1ccc(O)cc1)c1cc(Cl)ccc1O [Compound 86] | < 20 µM |
| COc1cccc(/C=C/C(O)=C/C(=O)c2cc(Cl)ccc2O)c1 [Compound 25] | < 20 µM |
| COc1cc(/C=C/C(O)=C/C(=O)c2ccccc2O)cc(OC)c1OC [Compound 9] | < 20 µM |

Memo: O=C(/C=C(O)/C=C/c1ccc(O)cc1)c1ccccc1O [Compound 81] , reported IC50: < 20 µM

Memo: COc1ccc(O)c(C(=O)/C=C(O)/C=C/c2ccc(OC)c(OC)c2)c1 [Compound 63] , reported IC50: < 20 µM

====

IC50 by entry:
test: Cell cytotoxicity determination (MTT assay); assay type: cell-based, murine; settings: mouse, RAW 264.7 macrophage cells, RAW 264.7 cells, read-out: Cytotoxicity IC50 (µM) ± S.E.M

| COMPOUND | IC50 |
| --- | --- |
| O=C(/C=C(O)/C=C/c1ccccc1)c1ccc(O)cc1O [Compound 93] | 59.5 µM |
| O=C(/C=C(O)/C=C/c1cccc(O)c1)c1cc(O)ccc1O [Compound 90] | > 100 µM |
| O=C(/C=C(O)/C=C/c1cccc(Cl)c1)c1cc(Cl)ccc1O [Compound 23] | 68.4 µM |

Proceeding to the next compound to report its IC50.
Memo: COc1cccc(/C=C/C(O)=C/C(=O)c2cc(Cl)ccc2O)c1 [Compound 25] , reported IC50: > 100 µM

====

IC50 by entry:
test: Cell cytotoxicity determination (MTT assay); format: cell-based, murine; settings: mouse, RAW 264.7 macrophage cells, RAW 264.7 cells, read-out: Cytotoxicity IC50 (µM) ± S.E.M
Please give a number only; it is taken to be in µM.

| MOLECULE | IC50 (µM) |
| --- | --- |
| O=C(/C=C(O)/C=C/c1ccccc1)c1ccccc1O | 56.2 |
| O=C(/C=C(O)/C=C/c1ccc(Cl)s1)c1ccccc1O | 67.8 |
| COc1cc(/C=C/C(=O)CC(=O)/C=C/c2ccc(O)c(OC)c2)ccc1O [Curcumin, curcumin, reference compound] | 28.8 |

Proceeding to the next molecule to report its IC50.
Memo: O=C(/C=C(O)/C=C/c1cc(O)ccc1O)c1cc(Cl)ccc1O , reported IC50: 66

====

system: RAW 264.7 cells; experiment: Cell cytotoxicity determination (MTT assay); assay type: cell-based, murine; details: read-out: Cytotoxicity IC50 (µM) ± S.E.M
// NB: equality with 70 µM counts as Not satisfied; only IC50 strictly below is Satisfied

| MOLECULE | LABEL VALUE |
| --- | --- |
| O=C(/C=C(O)/C=C/c1cc(O)ccc1O)c1cc(Cl)ccc1O [Compound 87] | Satisfied |
| O=C(/C=C(O)/C=C/c1ccc(O)cc1)c1ccccc1O [Compound 81] | Not satisfied |
| O=C(/C=C(O)/C=C/c1cccc(O)c1)c1ccccc1O [Compound 80] | Satisfied |
| O=C(/C=C(O)/C=C/c1ccco1)c1cc(O)ccc1O [Compound 91] | Not satisfied |
| O=C(/C=C(O)/C=C/c1ccc(O)c(O)c1)c1cc(Cl)ccc1O [Compound 88] | Satisfied |
| O=C(/C=C(O)/C=C/c1ccccc1O)c1ccccc1O [Compound 79] | Satisfied |
| O=C(/C=C(O)/C=C/c1cccc(O)c1)c1cc(Cl)ccc1O [Compound 85] | Not satisfied |
| O=C(/C=C(O)/C=C/c1ccccc1O)c1cc(Cl)ccc1O [Compound 84] | Satisfied |
| O=C(/C=C(O)/C=C/c1ccccc1)c1ccc(O)cc1O [Compound 93] | Satisfied |
| COc1ccc(C(=O)/C=C(O)/C=C/c2ccccc2OC)c(O)c1 [Compound 48] | Not satisfied |

I'd appreciate it if you could check whether O=C(/C=C(O)/C=C/c1ccccc1O)c1cc(O)ccc1O [Compound 89] has IC50 smaller than 70 µM. Not satisfied

I'd appreciate it if you could check whether O=C(/C=C(O)/C=C/c1cccc(O)c1)c1cc(O)ccc1O [Compound 90] has IC50 smaller than 70 µM. Not satisfied

I'd appreciate it if you could check whether O=C(/C=C(O)/C=C/c1ccc(O)cc1)c1cc(Cl)ccc1O [Compound 86] has IC50 smaller than 70 µM. Satisfied

I'd appreciate it if you could check whether COc1cc(/C=C/C(=O)CC(=O)/C=C/c2ccc(O)c(OC)c2)ccc1O [Curcumin, curcumin, reference compound] has IC50 smaller than 70 µM. Satisfied

====

IC50 by entry:
system: NO production in IFN-γ/LPS-stimulated RAW 264.7 macrophages; experiment: NO suppression (Griess nitrite determination) in IFN-γ/LPS-stimulated RAW 264.7 macrophages; type: cell-based, murine; conditions: Mus musculus, RAW264.7, IFN-γ/LPS-stimulated RAW 264.7 cells; read-out: NO Inhibition IC50 (µM) ± S.E.M
Write down the value, and be sure its unit follows.

Below: 5 molecules and their reported IC50.
| MOLECULE | IC50 |
| --- | --- |
| COc1ccc(C(=O)/C=C(O)/C=C/c2ccccc2Cl)c(O)c1 [Compound 46] | 58.5 µM |
| O=C(/C=C(O)/C=C/c1ccccc1O)c1cc(Cl)ccc1O [Compound 84] | 15.9 µM |
| COc1ccc(C(=O)/C=C(O)/C=C/c2ccccc2)c(O)c1 [Compound 45] | 29.5 µM |
| O=C(/C=C(O)/C=C/c1ccccc1O)c1cc(O)ccc1O [Compound 89] | 31 µM |
| O=C(/C=C(O)/C=C/c1ccc(Cl)s1)c1cc(Cl)ccc1O [Compound 36] | 25.3 µM |

Memo: O=C(/C=C(O)/C=C/c1ccc(Cl)s1)c1ccccc1O [Compound 17] , reported IC50: 36.4 µM

Memo: Cc1ccc(/C=C/C(O)=C/C(=O)c2ccccc2O)s1 [Compound 18] , reported IC50: 39.6 µM

Memo: O=C(/C=C(O)/C=C/c1cccc(O)c1)c1ccccc1O [Compound 80] , reported IC50: 30.8 µM

Memo: O=C(/C=C(O)/C=C/c1cccc(Br)c1)c1ccccc1O [Compound 4] , reported IC50: 29.4 µM

Memo: COc1ccc(O)c(C(=O)/C=C(O)/C=C/c2cccs2)c1 [Compound 71] , reported IC50: 35.6 µM

Memo: O=C(/C=C(O)/C=C/c1cccs1)c1cc(Cl)ccc1O [Compound 35] , reported IC50: 32.2 µM

Memo: COc1ccc(/C=C/C(O)=C/C(=O)c2cc(OC)ccc2O)c(OC)c1 [Compound 68] , reported IC50: 33.4 µM

Memo: COc1cccc(/C=C/C(O)=C/C(=O)c2cc(OC)ccc2O)c1 [Compound 62] , reported IC50: 35.1 µM

Memo: O=C(/C=C(O)/C=C/c1ccccc1)c1ccc(O)cc1O [Compound 93] , reported IC50: 29.9 µM

Memo: COc1ccccc1/C=C/C(O)=C/C(=O)c1ccccc1O [Compound 5] , reported IC50: 25.7 µM

Memo: O=C(/C=C(O)/C=C/c1cccc(Cl)c1)c1cc(Br)ccc1O [Compound 43] , reported IC50: 19.8 µM

Memo: O=C(/C=C(O)/C=C/c1ccccc1)c1ccccc1O [Compound 1] , reported IC50: 22.6 µM

Memo: O=C(/C=C(O)/C=C/c1ccccc1Cl)c1cc(Cl)ccc1O [Compound 22] , reported IC50: 30 µM

Memo: COc1cccc(/C=C/C(O)=C/C(=O)c2ccccc2O)c1 [Compound 6] , reported IC50: 31.6 µM

Memo: O=C(/C=C(O)/C=C/c1cccc2ccccc12)c1ccccc1O [Compound 19] , reported IC50: 23 µM
